- Test system: glioma-related cells (PDCs, GCs and GSCs)
- method.notes: IC50 assay (MTS cell viability), span over cell lines
- Format: cell-based
- condition.summary: span over PDC, GC and GSC lines
- Protocol: Four PDC lines (T12-1, T12-2, T2-4, T19-1) obtained from the Beijing Tiantan Hospital[53] and three GSC lines (GSC2, U87MG-SLC, U251-SLC) were established and verified in our previous work.[17] Two GCSC lines were kindly provided by Dr. Ran.[54] […]
quantity.name: IC50

Observed IC50 on glioma-related cells (PDCs, GCs and GSCs), entry CC(C)=CCC[C@]1(C)C=Cc2c(O)c3c(c(CC=C(C)C)c2O1)O[C@]12C(=C[C@@H]4CC1C(C)(C)O[C@@]2(C/C=C(/C)C(N)=O)C4=O)C3=O [GA-amide, gambogic amide] , equals 133 to 399 nM
